Test system: A375 multi-cell spheroids with HUVEC/MSC, viability
assay_procedure: Anticancer human tumor A375 cell line growth inhibition [GQUAD];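 note: spheroids exposed to compounds for seven days before readout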
test_parameters: second compound 1 µM; first compound 0.0316 µM; hits give low values
parameter_measured: viability, T/C

| compound | viability, T/C |
| --- | --- |
| COc1cc(C2c3cc4c(cc3C(OC3OC5COC(C)OC5C(O)C3O)C3COC(=O)C23)OCO4)cc(OC)c1O (stereo not given) + Cc1cnc(CNC(=O)c2c(=O)c3ccc(N4CCCN(C)CC4)nc3n3c2sc2ccccc23)cn1 | 40.1% |
| COc1cccc2c1C(=O)c1c(O)c3c(c(O)c1C2=O)CC(O)(C(=O)CO)CC3OC1CC(N)C(O)C(C)O1 (stereo not given) + Cc1cnc(CNC(=O)c2c(=O)c3ccc(N4CCCN(C)CC4)nc3n3c2sc2ccccc23)cn1 | 37.1% |
| CC1COCCN1c1cc(C2(S(C)(=N)=O)CC2)nc(-c2ccnc3[nH]ccc23)n1 (stereo not given) + Cc1[nH]c2ccc(F)cc2c1-c1nc2c3cccnc3c3ncccc3c2[nH]1 | 108% |

Record summary for CCCS(=O)(=O)Nc1ccc(F)c(C(=O)c2c[nH]c3ncc(-c4ccc(Cl)cc4)cc23)c1F + Cc1[nH]c2ccc(F)cc2c1-c1nc2c3cccnc3c3ncccc3c2[nH]1 : reported viability, T/C = 32%

Record summary for CC1COCCN1c1cc(-c2ccnn2C)c2ccnc(-c3ccn[nH]3)c2n1 (stereo not given) + CN(C)c1ccc(Nc2c3ccc(NC(=O)CCN4CCCC4)cc3nc3cc(NC(=O)CCN4CCCC4)ccc23)cc1 : reported viability, T/C = 108%

Record summary for COc1ccc([C@@H](O)c2cc(-c3ncnc4cc(N5CCOCC5)ccc34)c(F)cc2Cl)nn1 + CN(C)c1ccc(Nc2c3ccc(NC(=O)CCN4CCCC4)cc3nc3cc(NC(=O)CCN4CCCC4)ccc23)cc1 : reported viability, T/C = 103%

Record summary for C=CC(=O)N1CCN(c2nc(=O)n(-c3c(C)ccnc3C(C)C)c3nc(-c4c(O)cccc4F)c(F)cc23)C(C)C1 (stereo not given) + Cc1[nH]c2ccc(F)cc2c1-c1nc2c3cccnc3c3ncccc3c2[nH]1 : reported viability, T/C = 99.1%

Record summary for CC[C@@]1(O)C(=O)OCc2c1cc1n(c2=O)Cc2cc3c(CN(C)C)c(O)ccc3nc2-1 + CN(C)c1ccc(Nc2c3ccc(NC(=O)CCN4CCCC4)cc3nc3cc(NC(=O)CCN4CCCC4)ccc23)cc1 : reported viability, T/C = 67%

Record summary for CC(C)n1c(=O)n(C)c2cnc3cc(F)c(-c4ccc(OCCCN5CCCCC5)nc4)cc3c21 + CN(C)c1ccc(Nc2c3ccc(NC(=O)CCN4CCCC4)cc3nc3cc(NC(=O)CCN4CCCC4)ccc23)cc1 : reported viability, T/C = 103%

Record summary for CCCS(=O)(=O)Nc1ccc(F)c(C(=O)c2c[nH]c3ncc(-c4ccc(Cl)cc4)cc23)c1F + Cc1cnc(CNC(=O)c2c(=O)c3ccc(N4CCCN(C)CC4)nc3n3c2sc2ccccc23)cn1 : reported viability, T/C = 21.8%

###

viability, T/C listing for selected compounds.
Test system: A375 multi-cell spheroids with HUVEC/MSC, viability
assay_procedure: Anticancer human tumor A375 cell line growth inhibition [GQUAD];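 note: spheroids exposed to compounds for seven days before readout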
test_parameters: second compound 0.316 µM; first compound 3.16 µM; hits give low values
From the text: DNA G-quadruplex Stabilizer Agents in Combinations in Complex Spheroids A high-throughput screen of multi-cell type tumor spheroids was designed to identify active combinations of DNA G-quadruplex stabilizer agents and targeted small molecules. […] Compounds. […] If the clinical Cmax for an agent had not been determined, the highest concentration tested was 10 microM. […]
# output: bare number, implied unit %

Below are worked cases with known answers.
| compound | tested_target | value_measured |
| --- | --- | --- |
| CC1COCCN1c1cc(C2(S(C)(=N)=O)CC2)nc(-c2ccnc3[nH]ccc23)n1 (stereo not drawn) + CN(C)c1ccc(Nc2c3ccc(NC(=O)CCN4CCCC4)cc3nc3cc(NC(=O)CCN4CCCC4)ccc23)cc1 | A375 multi-cell spheroids with HUVEC/MSC, viability | 71.9 |
| COc1cc(C2c3cc4c(cc3C(OC3OC5COC(C)OC5C(O)C3O)C3COC(=O)C23)OCO4)cc(OC)c1O (stereo not drawn) + CN(C)c1ccc(Nc2c3ccc(NC(=O)CCN4CCCC4)cc3nc3cc(NC(=O)CCN4CCCC4)ccc23)cc1 | A375 multi-cell spheroids with HUVEC/MSC, viability | 33 |

Now look at this one.
Record summary for CC(C)n1c(=O)n(C)c2cnc3cc(F)c(-c4ccc(OCCCN5CCCCC5)nc4)cc3c21 + Cc1cnc(CNC(=O)c2c(=O)c3ccc(N4CCCN(C)CC4)nc3n3c2sc2ccccc23)cn1 : reported viability, T/C = 45.6
